Provenance of the data: ChEMBL document CHEMBL5365501

Biological target: Leucine-rich repeat serine/threonine-protein kinase 2 (Homo sapiens, UniProt Q5S007, G2019S)
Sequence (Q5S007 whole entry G2019S): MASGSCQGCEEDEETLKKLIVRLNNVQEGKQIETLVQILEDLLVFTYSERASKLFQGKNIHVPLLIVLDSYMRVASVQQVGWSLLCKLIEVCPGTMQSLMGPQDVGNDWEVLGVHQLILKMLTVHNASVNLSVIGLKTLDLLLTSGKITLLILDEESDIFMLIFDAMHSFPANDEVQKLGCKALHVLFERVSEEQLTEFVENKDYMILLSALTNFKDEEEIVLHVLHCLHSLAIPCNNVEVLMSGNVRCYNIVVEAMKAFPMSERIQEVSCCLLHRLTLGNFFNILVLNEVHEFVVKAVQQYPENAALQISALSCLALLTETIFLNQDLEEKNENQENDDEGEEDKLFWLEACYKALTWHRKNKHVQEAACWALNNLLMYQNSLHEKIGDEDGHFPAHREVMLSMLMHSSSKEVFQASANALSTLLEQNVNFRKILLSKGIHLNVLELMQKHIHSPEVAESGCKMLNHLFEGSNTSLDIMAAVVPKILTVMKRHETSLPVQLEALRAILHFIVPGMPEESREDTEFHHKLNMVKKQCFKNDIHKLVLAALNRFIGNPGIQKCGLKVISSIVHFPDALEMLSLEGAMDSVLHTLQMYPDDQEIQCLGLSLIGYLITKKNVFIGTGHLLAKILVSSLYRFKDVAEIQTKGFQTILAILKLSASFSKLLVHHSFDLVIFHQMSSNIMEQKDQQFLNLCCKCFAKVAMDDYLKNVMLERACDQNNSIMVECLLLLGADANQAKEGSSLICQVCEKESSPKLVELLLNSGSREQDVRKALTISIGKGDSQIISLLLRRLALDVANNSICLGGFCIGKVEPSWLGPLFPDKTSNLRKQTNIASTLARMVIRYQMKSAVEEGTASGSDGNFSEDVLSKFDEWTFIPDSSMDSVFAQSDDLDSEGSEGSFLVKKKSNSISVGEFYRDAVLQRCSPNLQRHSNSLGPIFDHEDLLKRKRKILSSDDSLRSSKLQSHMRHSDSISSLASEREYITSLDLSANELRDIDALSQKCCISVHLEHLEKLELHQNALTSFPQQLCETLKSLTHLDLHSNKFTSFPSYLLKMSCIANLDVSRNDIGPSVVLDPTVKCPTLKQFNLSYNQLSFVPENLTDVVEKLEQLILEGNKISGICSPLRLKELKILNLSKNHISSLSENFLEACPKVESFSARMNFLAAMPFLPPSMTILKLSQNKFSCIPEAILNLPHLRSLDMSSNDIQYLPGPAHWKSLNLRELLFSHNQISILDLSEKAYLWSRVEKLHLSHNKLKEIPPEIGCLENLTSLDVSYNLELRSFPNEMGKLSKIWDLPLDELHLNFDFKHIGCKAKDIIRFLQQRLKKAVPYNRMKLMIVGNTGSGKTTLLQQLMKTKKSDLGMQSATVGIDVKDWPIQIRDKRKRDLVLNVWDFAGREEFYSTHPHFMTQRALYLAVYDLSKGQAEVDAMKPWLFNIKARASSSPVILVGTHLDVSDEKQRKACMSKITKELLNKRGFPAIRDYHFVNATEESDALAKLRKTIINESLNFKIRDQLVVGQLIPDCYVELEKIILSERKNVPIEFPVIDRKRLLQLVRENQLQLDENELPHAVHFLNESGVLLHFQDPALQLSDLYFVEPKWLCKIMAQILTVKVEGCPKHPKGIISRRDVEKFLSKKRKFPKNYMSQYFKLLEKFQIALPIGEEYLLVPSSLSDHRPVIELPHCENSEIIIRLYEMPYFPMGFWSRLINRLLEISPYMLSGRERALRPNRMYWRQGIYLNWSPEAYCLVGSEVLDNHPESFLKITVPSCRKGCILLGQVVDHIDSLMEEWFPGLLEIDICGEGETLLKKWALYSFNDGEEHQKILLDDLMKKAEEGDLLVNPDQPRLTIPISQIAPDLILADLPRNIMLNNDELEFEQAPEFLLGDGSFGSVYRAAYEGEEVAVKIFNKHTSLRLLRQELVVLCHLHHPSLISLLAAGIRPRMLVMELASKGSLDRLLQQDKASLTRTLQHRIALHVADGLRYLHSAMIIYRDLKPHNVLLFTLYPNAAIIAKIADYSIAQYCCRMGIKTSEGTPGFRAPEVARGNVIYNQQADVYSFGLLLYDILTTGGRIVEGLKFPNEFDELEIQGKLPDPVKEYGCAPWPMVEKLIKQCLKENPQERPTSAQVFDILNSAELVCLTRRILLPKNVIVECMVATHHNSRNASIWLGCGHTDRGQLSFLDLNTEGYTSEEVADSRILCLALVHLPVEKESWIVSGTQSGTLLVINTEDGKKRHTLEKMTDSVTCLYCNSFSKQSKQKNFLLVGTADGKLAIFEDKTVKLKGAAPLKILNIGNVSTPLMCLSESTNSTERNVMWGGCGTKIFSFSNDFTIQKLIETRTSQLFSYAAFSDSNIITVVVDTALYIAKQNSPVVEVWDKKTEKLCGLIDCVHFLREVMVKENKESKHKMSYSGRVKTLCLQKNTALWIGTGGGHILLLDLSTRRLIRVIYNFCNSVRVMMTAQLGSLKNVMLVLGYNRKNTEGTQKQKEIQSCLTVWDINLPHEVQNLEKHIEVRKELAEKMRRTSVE
Assay: Inhibition of LRRK2 G2019S mutant (unknown origin) using LRRKtide as substrate pre-incubated for 15 min and measured after 1 hrs by HTRF assay
measurement label: IC50 (nM)

get_value(item= N#Cc1ccc2c(c1)CCC[C@@H]2Nc1ccc2[nH]nc(-c3cnco3)c2c1 , readout=IC50) returns 0.9

get_value(item= Cn1ncc2cc(C(=O)Nc3ccc4[nH]nc(-c5ccoc5)c4c3)ccc21 , readout=IC50) returns 13

(A) Cc1n[nH]c2ccc(O[C@H]3CCc4cc(C#N)ccc43)cc12
(B) Cc1n[nH]c2ccc(O[C@@H]3CCc4cc(C#N)ccc43)cc12
Exercise: Identify the entry with the smaller IC50: A or B . Provide the label of your selected option as the answer.
Key: A

(1) N#Cc1ccc2c(c1)CC[C@@H]2Nc1ccc2[nH]nc(-c3ccoc3)c2c1
(2) N#Cc1ccc2c(c1)CC[C@@H]2Oc1ccc2[nH]nc(-c3cnco3)c2c1
Exercise: Could you point out whether the larger IC50 belongs to 1 or to 2 ? Provide the label of your selected option as the answer.
Key: 1

---

Molecular target: Leucine-rich repeat serine/threonine-protein kinase 2 (Homo sapiens, UniProt Q5S007, G2019S)
Assay: Inhibition of LRRK2 G2019S mutant (unknown origin) using LRRKtide as substrate pre-incubated for 15 min and measured after 1 hrs by HTRF assay
pIC50: −log10 of the molar value.
measurement label: pIC50

get_value(item= N#Cc1ccc2c(c1)[C@@H](Nc1ccc3[nH]nc(Br)c3c1)CCC2 , readout=pIC50) returns 7.85

(a) N#Cc1ccc2c(c1)CN(c1ccc3[nH]nc(C4CC4)c3c1)C2=O
(b) CN(C)Cc1ccc(C(=O)Nc2ccc3[nH]nc(-c4ccoc4)c3c2)cc1
Exercise: Identify the entry with the smaller pIC50: a or b . Provide the label of your selected option as the answer.
Key: a
(a: 6.21, b: 6.60)

(a) N#Cc1ccc(C(=O)Nc2ccc3[nH]nc(C4CC4)c3c2)cc1
(b) COCc1ccc(C(=O)Nc2ccc3[nH]nc(-c4ccoc4)c3c2)cc1
(c) CC1=C(C(=O)Nc2ccc3[nH]ncc3c2)Cn2nnnc2N1C
Exercise: # rank by pIC50, ascending (min first) Give your ranking as a list of the labels in the requested order.
Key: a, b, c
(a: 6.10, b: 7.01, c: 7.46)

(I) O=C(Nc1ccc2[nH]nc(-c3ccoc3)c2c1)c1cnc2cnccc2c1
(II) N#Cc1ccc(C(=O)Nc2ccc3[nH]nc(-c4ccoc4)c3c2)cc1
(III) Cc1n[nH]c2ccc(O[C@H]3CCCc4cc(C#N)ccc43)cc12
Exercise: Rank the 3 compounds: largest pIC50 first, smallest last. Give your ranking as a list of the labels in the requested order.
Key: III, II, I
